B1: Keratin, type II cytoskeletal 6A (Homo sapiens), P02538 (parent)
chain: MASTSTTIRSHSSSRRGFSANSARLPGVSRSGFSSVSVSRSRGSGGLGGACGGAGFGSRSLYGLGGSKRISIGGGSCAISGGYGSRAGGSYGFGGAGSGFGFGGGAGIGFGLGGGAGLAGGFGGPGFPVCPPGGIQEVTVNQSLLTPLNLQIDPTIQRVRAEEREQIKTLNNKFASFIDKVRFLEQQNKVLETKWTLLQEQGTKTVRQNLEPLFEQYINNLRRQLDSIVGERGRLDSELRGMQDLVEDFKNKYEDEINKRTAAENEFVTLKKDVDAAYMNKVELQAKADTLTDEINFLRALYDAELSQMQTHISDTSVVLSMDNNRNLDLDSIIAEVKAQYEEIAQRSRAEAESWYQTKYEELQVTAGRHGDDLRNTKQEIAEINRMIQRLRSEIDHVKKQCANLQAAIADAEQRGEMALKDAKNKLEGLEDALQKAKQDLARLLKEYQELMNVKLALDVEIATYRKLLEGEECRLNGEGVGQVNISVVQSTVSSGYGGASGVGSGLGLGGGSSYSYGSGLGVGGGFSSSSGRAIGGGLSSVGGGSSTIKYTTTSSSSRKSYKH

# Variants of: B1
# CONDITION DETAILS: with KRT40, Q6A162
# Sequence (Q6A162 whole entry): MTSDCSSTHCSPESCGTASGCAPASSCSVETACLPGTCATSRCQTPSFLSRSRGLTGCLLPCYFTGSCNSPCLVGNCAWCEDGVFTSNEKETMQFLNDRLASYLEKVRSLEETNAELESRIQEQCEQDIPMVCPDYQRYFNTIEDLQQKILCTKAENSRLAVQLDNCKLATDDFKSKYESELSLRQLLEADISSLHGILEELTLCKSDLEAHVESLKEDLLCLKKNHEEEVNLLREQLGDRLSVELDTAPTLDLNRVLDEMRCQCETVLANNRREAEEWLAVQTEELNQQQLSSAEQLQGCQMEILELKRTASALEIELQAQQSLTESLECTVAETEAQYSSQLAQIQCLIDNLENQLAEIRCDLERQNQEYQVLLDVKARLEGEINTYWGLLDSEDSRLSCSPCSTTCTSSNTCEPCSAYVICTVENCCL
ENDPOINT NAME: effect of a mutation on the interaction

[[record]]
variant_annotation = "A463P"
meas_value = "with no effect"

[[record]]
variant_annotation = "F174V"
meas_value = "with no effect"

[[record]]
variant_annotation = "I462S"
meas_value = "with no effect"

[[record]]
variant_annotation = "N171K"
meas_value = "with no effect"


Where do the numbers come from? From IntAct's records for PubMed 25910212.
